FYI, the data here is from the supplement of paper PMC10307832.

tested on: EKVX; test: relative viability (nuclei count vs DMSO), 5 days (fraction); higher = more cells survive; conditions: first compound 0.08 µM
Would you mind telling me the reported relative viability of each entry?
Enter the number alone.

Quick note, relative viability for Cc1cnc(-c2cnc(NCCNc3ccc(C#N)cn3)nc2-c2ccc(Cl)cc2Cl)[nH]1 + C[C@@H](Oc1cc(-c2cnn(C3CCNCC3)c2)cnc1N)c1c(Cl)ccc(F)c1Cl [Crizotinib] (partner 1 µM) landed at 0.938

The compound listed as Cc1cnc(-c2cnc(NCCNc3ccc(C#N)cn3)nc2-c2ccc(Cl)cc2Cl)[nH]1 + CS(=O)(=O)CCNCc1ccc(-c2ccc3ncnc(Nc4ccc(OCc5cccc(F)c5)c(Cl)c4)c3c2)o1 [Lapatinib] (partner 2 µM) has a reported relative viability of 0.235

The measured relative viability associated with Cc1cnc(-c2cnc(NCCNc3ccc(C#N)cn3)nc2-c2ccc(Cl)cc2Cl)[nH]1 + N=C(N)NC(=N)NCCc1ccccc1 [Phenformin] (partner 250 µM) reads 0.192

In plain terms, Cc1cnc(-c2cnc(NCCNc3ccc(C#N)cn3)nc2-c2ccc(Cl)cc2Cl)[nH]1 + CCNC(=O)c1noc(-c2cc(C(C)C)c(O)cc2O)c1-c1ccc(CN2CCOCC2)cc1 [Luminespib] (partner 0.01 µM) has a documented relative viability of 0.85

Field relative viability (entry Cc1cnc(-c2cnc(NCCNc3ccc(C#N)cn3)nc2-c2ccc(Cl)cc2Cl)[nH]1 + CC(=O)c1c(C)c2cnc(Nc3ccc(N4CCNCC4)cn3)nc2n(C2CCCC2)c1=O [Palbociclib] (partner 0.5 µM) ) reads 0.493

Per the record, Cc1cnc(-c2cnc(NCCNc3ccc(C#N)cn3)nc2-c2ccc(Cl)cc2Cl)[nH]1 + Cc1nc(NC(=O)N2CCC[C@H]2C(N)=O)sc1-c1ccnc(C(C)(C)C(F)(F)F)c1 [Alpelisib] (partner 2 µM) has relative viability of 1.04

relative viability for O=c1[nH]c2ccccc2n1C1CCN(CCCC(c2ccc(F)cc2)c2ccc(F)cc2)CC1 [Pimozide] + N=C(N)NC(=N)NCCc1ccccc1 [Phenformin] (partner 250 µM) is 0.192

response.value for Cc1cnc(-c2cnc(NCCNc3ccc(C#N)cn3)nc2-c2ccc(Cl)cc2Cl)[nH]1 + O=C(CCCCCCC(=O)Nc1ccccc1)NO [Vorinostat] (partner 1 µM) (field: relative viability) = 0.789

Looking up O=c1[nH]c2ccccc2n1C1CCN(CCCC(c2ccc(F)cc2)c2ccc(F)cc2)CC1 [Pimozide] + COc1cccc2cc(-c3nc([C@H]4CC[C@H](C(=O)O)CC4)n4ncnc(N)c34)[nH]c12 [OSI-027] (partner 0.5 µM) , I found its relative viability recorded as 0.548
